# System: Staphylococcus aureus
# Assay remarks: Antibacterial activity against methicillin-susceptible Staphylococcus aureus clinical isolate 268/08 after 18 hrs by twofold serial agar dilution technique
# Assay type: functional
# Conditions: clinical isolate 268/08, 18 h
Attribute measured: MIC (mg/L)

S=C(Nc1ccc(Br)cc1)Nc1nc[nH]n1; 50
S=C(Nc1nc[nH]n1)Nc1ccccc1Br; 50
Fc1cccc(NC(=S)Nc2nc[nH]n2)c1; 25
S=C(Nc1ccc(Cl)cc1)Nc1nc[nH]n1; 25
Fc1ccc(NC(=S)Nc2nc[nH]n2)cc1; 100
S=C(Nc1ccc(I)cc1)Nc1nc[nH]n1; 25
S=C(Nc1ccccc1)Nc1nc[nH]n1; 50

* * *

# Tested on: Proteus vulgaris
# Assay remarks: Antibacterial activity against Proteus vulgaris NCTC 4635 at 400 ug/disc after 18 hrs by disc diffusion method
# Type: functional, organism-based
Active and inactive are the calls of the source. The calls are words filed in the database; no cut-off is given here.
Attribute measured: diameter of the inhibition zone (DIZ)

S=C(Nc1ccc(Cl)cc1)Nc1nc[nH]n1; inactive
S=C(Nc1ccc(I)cc1)Nc1nc[nH]n1; inactive
S=C(Nc1ccccc1)Nc1nc[nH]n1; inactive
Fc1cccc(NC(=S)Nc2nc[nH]n2)c1; inactive
Fc1ccccc1NC(=S)Nc1nc[nH]n1; inactive
Fc1ccc(NC(=S)Nc2nc[nH]n2)cc1; inactive
S=C(Nc1nc[nH]n1)Nc1ccccc1Br; inactive
Cc1ccc(NC(=S)Nc2nc[nH]n2)cc1; inactive
S=C(Nc1ccc(Br)cc1)Nc1nc[nH]n1; inactive
S=C(Nc1cccc(Br)c1)Nc1nc[nH]n1; inactive

* * *

Some compounds, each annotated with its measured MIC.
# System: Staphylococcus epidermidis
# Assay remarks: Antibacterial activity against methicillin-resistant Staphylococcus epidermidis clinical isolate 377/09 after 18 hrs by twofold serial agar dilution technique
# Type: functional
# Conditions: clinical isolate 377/09, 18 h
Attribute measured: MIC (µg/mL)

S=C(Nc1ccc(Br)cc1)Nc1nc[nH]n1; 25
Fc1ccc(NC(=S)Nc2nc[nH]n2)cc1; 50
Nc1ncnn1/C(S)=N/C1CCCCC1; 25
S=C(Nc1ccc(I)cc1)Nc1nc[nH]n1; 25
S=C(Nc1ccccc1)Nc1nc[nH]n1; 50
S=C(Nc1ccc(Cl)cc1)Nc1nc[nH]n1; 25
S=C(Nc1nc[nH]n1)Nc1ccccc1Br; 50

* * *

# Tested on: Candida parapsilosis
# Assay remarks: Antifungal activity against Candida parapsilosis ATCC 22019 at 400 ug/disc after 18 hrs by disc diffusion method
# Type: functional, organism-based
The source made the active and inactive calls. No cut-off for these calls is given here.
Attribute measured: diameter of the inhibition zone (DIZ)

S=C(Nc1nc[nH]n1)Nc1ccccc1Br; inactive
S=C(Nc1ccc(I)cc1)Nc1nc[nH]n1; inactive
S=C(Nc1ccc(Cl)cc1)Nc1nc[nH]n1; inactive
S=C(Nc1ccccc1)Nc1nc[nH]n1; inactive
Fc1ccc(NC(=S)Nc2nc[nH]n2)cc1; inactive
S=C(Nc1ccc(Br)cc1)Nc1nc[nH]n1; inactive
Fc1cccc(NC(=S)Nc2nc[nH]n2)c1; inactive
S=C(Nc1cccc(Br)c1)Nc1nc[nH]n1; inactive
Fc1ccccc1NC(=S)Nc1nc[nH]n1; inactive
Cc1ccc(NC(=S)Nc2nc[nH]n2)cc1; inactive

* * *

# Test system: Staphylococcus aureus
# Assay remarks: Antibacterial activity against methicillin-susceptible Staphylococcus aureus clinical isolate 372/09 after 18 hrs by twofold serial agar dilution technique
# Format: functional
# Conditions: clinical isolate 372/09, 18 h
Some compounds, each annotated with its measured MIC.
Attribute measured: MIC (µg/mL)

Fc1ccc(NC(=S)Nc2nc[nH]n2)cc1; 50
S=C(Nc1ccc(Cl)cc1)Nc1nc[nH]n1; 25
S=C(Nc1ccccc1)Nc1nc[nH]n1; 50
Fc1cccc(NC(=S)Nc2nc[nH]n2)c1; 25
S=C(Nc1ccc(I)cc1)Nc1nc[nH]n1; 25
S=C(Nc1ccc(Br)cc1)Nc1nc[nH]n1; 25
S=C(Nc1nc[nH]n1)Nc1ccccc1Br; 50
